System: human cervical cancer cell HeLa
method.summary: CCK-8 cell proliferation inhibition, HeLa
Assay type: cell-based
test.settings: listed as (Z)-3,4,5-trimethoxy-4′-ethoxy-3′-aminosulfamatestilbene; read-out: IC50 HeLa
recorded.endpoint: IC50

>>> value_measured("CCOc1ccc(/C=C\\c2cc(OC)c(OC)c(OC)c2)cc1OS(N)(=O)=O")
"< 500 nM"

###

tested.system: Arylsulfatase
method.summary: Arylsulfatase activity assay in vitro
Format: biochemical
test.settings: read-out: sulfatase inhibitory activity
Experimental: Weigh an appropriate amount of the test compound and dissolve it in dimethyl sulfoxide. Dilute it with Tris-HCl buffer for 2, 5, 10, 20, 50, 100, 200, 500, 1000, 2000, 5000, and 10,000 times. Add another dilution gradient to the sample. […] 405 nm detection in the microplate reader, each sample is measured for 40 times, and the interval is 30 s. The representative time node within the time period with good linearity of the absorbance value are selected for data analysis. […]
pIC50: −log10 of the molar value.
recorded.endpoint: pIC50

>>> value_measured("COc1cc(/C=C\\c2cccc(OS(N)(=O)=O)c2)cc(OC)c1OC [Compound A4-1]")
"> 6.30"
